- testSummary: Antioxidative activity of the compound assessed as DPPH radical scavenging activity
- Format: physicochemical
pIC50: −log10 of the molar value.
measuredParameter: pIC50

smilesstring=O=C(/C=C/c1ccc(O)c(O)c1)O[C@@H]1C[C@](O)(C(=O)O)C[C@@H](O)[C@H]1O reported=4.25
smilesstring=CC/C=C/C[C@H](O)/C=C/[C@H](O)[C@H](O)[C@H](O)CCCCC[C@H](C)O reported=4.60
smilesstring=C=C[C@](C)(CC/C=C(\CO)CC/C=C(\C)C[C@@H](O)/C=C(\C)C(=O)O)O[C@H]1O[C@@H](CO)[C@H](O)[C@@H](O)[C@@H]1O reported=4.40

P. C=C[C@](C)(O)CC/C=C(C)/C=C/[C@@H](O[C@H]1O[C@@H](CO)[C@H](O)[C@@H](O)[C@@H]1O)C(C)(C)O
Q. C=C[C@](C)(O)C[C@@H](O)/C=C(\C)[C@@H](O)CC=C(C)C
Decide: P or Q , by lowest recorded pIC50. Give the label under which the chosen entry appears. P
(P: 4.42, Q: 4.63)
